Test: Hemolytic activity on human erythrocytes (in vitro)
Format: cell-based
Conditions: both sexes, 0.5% red blood cell suspension, 1000 µg/mL, type O blood, 1 h, read-out: hemolysis rate
quantity.name: hemolysis at 1 h, 1000 µg/mL

Suppose we examine the compound COc1ccc(-c2oc3c(OC)c(O)cc(O)c3c(=O)c2OC)cc1 [Pg-1, 5,7-dihydroxy-3,8,4'-trimethoxy] ; what hemolysis at 1 h, 1000 µg/mL value has been reported?
< 9%

----------
Test: Hemolytic activity on human erythrocytes (in vitro)
Type: cell-based
Conditions: both sexes, 0.5% red blood cell suspension, 1000 µg/mL, type B blood, 1 h, read-out: hemolysis rate
quantity.name: hemolysis at 1 h, 1000 µg/mL

Suppose we examine the compound COc1ccc(-c2oc3c(OC)c(O)cc(O)c3c(=O)c2OC)cc1 [Pg-1, 5,7-dihydroxy-3,8,4'-trimethoxy] ; what hemolysis at 1 h, 1000 µg/mL value has been reported?
< 17%

Entry source: paper PMC8373196
